# Target System: acetylcholine receptor
# Procedure Details: SPR, receptor immobilised on chip, peptide at 10 µM
Experimental Readout: Binding affinity
Kindly report the value followed by its unit.

KWISRR [6mer-2-471]
136 RU
RRYQKK [6mer-2-490]
145 RU
RQRYKK [6mer-2-481]
131 RU

Turning now to a further record.
Memo: RLFTKR [6mer-2-499] , reported Binding affinity: 145 RU
